Collected remaining activity at 10 µM values appear next to each entry.
# TARGET OR SYSTEM: α4β2 subtype of nicotinic acetylcholine receptors (Rattus norvegicus, UniProt P09483+P12390)
# Construct: rat brain membrane obtained from whole homogenized brain; from tissue; host or cells: whole brain of Fischer-344 male rats, membrane fraction
# Sequence (P09483 31-630): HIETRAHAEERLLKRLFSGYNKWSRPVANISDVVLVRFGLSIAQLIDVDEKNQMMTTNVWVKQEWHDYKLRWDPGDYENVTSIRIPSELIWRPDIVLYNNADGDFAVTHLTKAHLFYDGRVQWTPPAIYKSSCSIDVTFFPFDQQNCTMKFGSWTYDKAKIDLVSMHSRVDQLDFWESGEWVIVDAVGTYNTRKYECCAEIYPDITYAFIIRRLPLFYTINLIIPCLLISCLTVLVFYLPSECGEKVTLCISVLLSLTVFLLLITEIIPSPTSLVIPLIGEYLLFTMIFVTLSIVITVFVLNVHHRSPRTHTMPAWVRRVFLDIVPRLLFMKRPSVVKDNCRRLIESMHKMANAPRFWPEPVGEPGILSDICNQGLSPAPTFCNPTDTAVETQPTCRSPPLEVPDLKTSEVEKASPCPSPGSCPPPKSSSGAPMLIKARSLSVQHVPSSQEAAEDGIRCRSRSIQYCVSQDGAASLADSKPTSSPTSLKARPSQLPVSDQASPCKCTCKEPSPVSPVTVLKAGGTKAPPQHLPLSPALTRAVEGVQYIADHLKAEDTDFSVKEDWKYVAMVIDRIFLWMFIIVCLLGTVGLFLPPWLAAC
# Sequence (P12390 25-500): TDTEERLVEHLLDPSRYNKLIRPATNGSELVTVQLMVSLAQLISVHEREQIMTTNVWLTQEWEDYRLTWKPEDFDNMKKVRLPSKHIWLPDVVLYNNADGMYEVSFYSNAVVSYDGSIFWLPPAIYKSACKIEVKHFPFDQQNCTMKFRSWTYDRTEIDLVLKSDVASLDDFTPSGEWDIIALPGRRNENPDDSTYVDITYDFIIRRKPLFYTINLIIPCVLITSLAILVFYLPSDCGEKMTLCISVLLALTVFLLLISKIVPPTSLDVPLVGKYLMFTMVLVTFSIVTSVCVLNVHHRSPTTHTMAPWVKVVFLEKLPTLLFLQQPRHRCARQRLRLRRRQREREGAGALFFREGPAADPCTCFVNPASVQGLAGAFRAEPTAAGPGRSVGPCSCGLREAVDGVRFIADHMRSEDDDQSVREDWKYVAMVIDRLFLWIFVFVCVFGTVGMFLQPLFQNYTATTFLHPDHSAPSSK
# PROTOCOL NOTES: Binding assay at α4β2 subtype of nicotinic acetylcholine receptors ([3H]-cytisine, rat brain membrane)
# TEST CONDITIONS: read-out: control % of [3H]-cytisine binding
Answer with the value and then the unit.

Consider N=c1ncccn1CCc1ccc(Cl)nc1 . Its measured remaining activity at 10 µM is 17%

---

# TARGET OR SYSTEM: α1β1γδ subtype of nicotinic acetylcholine receptors (Rattus norvegicus, UniProt P18916+P25108+P25110)
# Sequence (P25109 24-501): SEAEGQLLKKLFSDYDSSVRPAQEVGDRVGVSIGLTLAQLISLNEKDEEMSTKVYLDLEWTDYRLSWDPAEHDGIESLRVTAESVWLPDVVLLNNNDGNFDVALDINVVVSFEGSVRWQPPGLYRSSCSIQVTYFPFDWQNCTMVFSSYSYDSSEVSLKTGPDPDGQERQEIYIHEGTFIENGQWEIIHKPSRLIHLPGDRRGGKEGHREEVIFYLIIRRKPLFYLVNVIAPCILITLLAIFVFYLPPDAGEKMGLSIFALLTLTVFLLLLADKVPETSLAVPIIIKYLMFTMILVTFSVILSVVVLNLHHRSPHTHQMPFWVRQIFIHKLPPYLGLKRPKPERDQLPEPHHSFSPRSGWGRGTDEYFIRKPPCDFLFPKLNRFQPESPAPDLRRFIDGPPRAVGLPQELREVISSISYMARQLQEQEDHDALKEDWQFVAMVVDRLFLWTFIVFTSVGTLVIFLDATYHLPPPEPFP
# Sequence (P25110 22-517): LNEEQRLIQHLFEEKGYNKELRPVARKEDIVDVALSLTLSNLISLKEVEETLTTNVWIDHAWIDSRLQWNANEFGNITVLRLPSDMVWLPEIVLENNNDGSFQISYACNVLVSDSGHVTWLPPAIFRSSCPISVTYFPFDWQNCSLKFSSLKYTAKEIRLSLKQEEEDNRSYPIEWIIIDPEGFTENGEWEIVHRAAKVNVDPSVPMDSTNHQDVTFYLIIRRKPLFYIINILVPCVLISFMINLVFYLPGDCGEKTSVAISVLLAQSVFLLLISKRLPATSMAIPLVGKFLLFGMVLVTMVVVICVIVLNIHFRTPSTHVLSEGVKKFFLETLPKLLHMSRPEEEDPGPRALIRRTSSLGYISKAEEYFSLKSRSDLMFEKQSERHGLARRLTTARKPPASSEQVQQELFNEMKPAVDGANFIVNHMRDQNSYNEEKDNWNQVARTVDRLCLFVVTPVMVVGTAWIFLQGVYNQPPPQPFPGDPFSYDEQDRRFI
# Sequence (P25108 21-457): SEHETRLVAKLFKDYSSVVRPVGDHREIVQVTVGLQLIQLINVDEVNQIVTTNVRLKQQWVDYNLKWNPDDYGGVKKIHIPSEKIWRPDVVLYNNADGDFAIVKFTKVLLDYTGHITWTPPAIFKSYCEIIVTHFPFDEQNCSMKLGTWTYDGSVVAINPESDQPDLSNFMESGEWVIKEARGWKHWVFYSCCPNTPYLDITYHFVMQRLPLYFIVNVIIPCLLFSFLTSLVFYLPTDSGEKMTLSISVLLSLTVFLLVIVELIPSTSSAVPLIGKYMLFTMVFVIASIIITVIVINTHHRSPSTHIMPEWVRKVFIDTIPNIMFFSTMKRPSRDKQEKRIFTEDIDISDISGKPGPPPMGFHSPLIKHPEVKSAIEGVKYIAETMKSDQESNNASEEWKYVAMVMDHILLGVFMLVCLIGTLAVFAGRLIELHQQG
# Sequence (P18916 23-519): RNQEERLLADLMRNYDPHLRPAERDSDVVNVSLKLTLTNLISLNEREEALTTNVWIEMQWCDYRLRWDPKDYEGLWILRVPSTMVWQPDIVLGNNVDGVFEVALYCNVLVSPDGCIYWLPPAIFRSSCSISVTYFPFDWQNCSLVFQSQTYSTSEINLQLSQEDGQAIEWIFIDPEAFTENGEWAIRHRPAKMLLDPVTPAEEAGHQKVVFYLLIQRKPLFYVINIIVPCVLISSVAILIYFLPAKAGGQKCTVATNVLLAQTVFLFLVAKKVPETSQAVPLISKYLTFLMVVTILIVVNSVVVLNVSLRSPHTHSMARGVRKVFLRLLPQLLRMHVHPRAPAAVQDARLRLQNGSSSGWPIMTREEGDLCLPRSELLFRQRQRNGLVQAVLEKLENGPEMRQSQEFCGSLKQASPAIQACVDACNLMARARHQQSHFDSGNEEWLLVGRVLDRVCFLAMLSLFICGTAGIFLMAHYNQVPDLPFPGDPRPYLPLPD
# PROTOCOL NOTES: biochemical
# TEST CONDITIONS: read-out: Affinities for receptors Ki α1β1γδ; rat muscle extract, [3H]-α-Bgt 1 nM
Collected Ki values appear next to each entry.
Numbers only; they are read as µM.

A selection of reference data follows.
Cc1csc(=N)n1CCc1ccc(Cl)nc1 ... 10
CN1CCCC1c1cccnc1 (single isomer, unassigned; (-)) [Nicotine, (−)-nicotine, reference compound] ... 182
Nc1nccn1CCc1cccnn1 ... 80
Nc1nccn1CCc1cncnc1 ... 447

# evaluate next
Consider N=c1sccn1CCc1cnc(Cl)s1 . Its measured Ki is 58
